B1: glmS ribozyme (parent)
chain: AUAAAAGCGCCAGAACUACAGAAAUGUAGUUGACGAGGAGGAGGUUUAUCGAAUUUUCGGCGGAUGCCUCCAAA

# Variants of: B1
# experiment summary: self-cleavage kobs at 2500 uM GlcN6P; higher = faster cleavage; RNA array
# settings: with glucosamine-6-phosphate
This sample holds only a part of the variants without activity.
Listed here: items and their measured self-cleavage kobs at 2500 uM GlcN6P.

seq text	self-cleavage kobs at 2500 uM GlcN6P
AUAAAAGGGCCAGGACUACAGAAAUGUAGUUGACGAGGAGGAGGUUUAUCGAAUGUUCGGCGGAUGCCUCCAAA [C8G A14G U55G]	< 1e-05 s⁻¹
AUAAAAGCGCCAGAACUACAGAAAUGUAGUUGACGAGGAGGAGGUUUAUCGAAUUUUCGGAGGCUGCCUCCAAA [C61A A64C]	< 1e-05 s⁻¹
AUAAAAGCGCCAGAAAUACAGAAAUGUAGUUGACGAGGAGGAGGUUUAUCGAAUUUUAGGCGGAUGCCUCCAAA [C16A C58A]	7.24e-05 s⁻¹
AUAAAAGCGCCAGAACUACAGAAAUGUAGUUGACGAGGAUGAGGUUUAACGAAUUUUCGGCGGAUGCCUCCAAA [G40U U49A]	< 1e-05 s⁻¹
AUAAAAGCGCCAGAACUACAGAAAUGUAGUUGACGAGGAGGAGGUUUACCGAAUUUUCGGCCGAUGCCUCCAAA [U49C G62C]	< 1e-05 s⁻¹
AUAAAAGCGCCAGAACUACAGAAAUGUAGUUGACGAGUAGGAGGUUUAUCGAAUUUGCGGCGGAUGUCUUCAAA [G38U U57G C67U C70U]	0.0013 s⁻¹
AUAAAAGCGCCAGGACUACAGAAAUGUAGUUGACGAGGAGGAGGUUUAUCGAAAUUUCAGCGGAUGCCUCCAAA [A14G U54A G59A]	8.37e-05 s⁻¹
AUAAAAGCGCCAGAAAUACAGAAAUGUAGUUGAUGAGGAGGAGGUUUAUCGAAUUUUCGGCGGAUGCCUCCAAA [C16A C34U]	< 1e-05 s⁻¹
AUAAAAGCGCCAGAACUACAGAAAUGUAGUUGCCGAGGAUGAGGUUUAUCGAAUUUUCGGCAGAUGCCUGCAAA [A33C G40U G62A C70G]	< 1e-05 s⁻¹
AUAAAAGCGCCAGAACUACAGAAAUGUAGUUGGCGAGGAGGAGGUUUAUCGAAUUCUCGACGGAUGCCUCCAAA [A33G U56C G60A]	< 1e-05 s⁻¹
AUAAAAGCGCCAUAACUACAGAAAUGUAUUUGACGAGGAGGAGGUUUAUCGAAUUUUCGGCGGAUGCCUACAAA [G13U G29U C70A]	4.33e-05 s⁻¹
AUAAAAGUGCCAGAACUACAGAAAUGUAGUUGACGAGGUGGAGGUUUAUCGAAUUUUCGGCGGAUGGCUCCAAA [C8U A39U C67G]	< 1e-05 s⁻¹
AUAAAUGCGCCAGAACUACAGAAAUGUAGUUGACUAGGAGGAGGUUUAUCGAAUUUUCGGCGGAUGCCUCCAAA [A6U G35U]	< 1e-05 s⁻¹
AUAAAGGCGCCAGACCUACAGAAAUGUAGUUGACGAGGAGGAGGUUUAUCGAAUUUUCGGCGGAUGCCUCCAAA [A6G A15C]	4.69e-05 s⁻¹
